Provenance of the data: patent US7767659B2

Tested on: LoVo
testDescription: cells
statedConditions: Homo sapiens, LoVo, 48 h, read-out: LOVO GI50
Procedure: This form of the assay employs 96 well cell culture microplates of 9 mm diameter (Faircloth, 1988; Mosmann, 1983). Most of the cell lines are obtained from American Type Culture Collection (ATCC) derived from different human cancer types. […] The values for mean +/− SD of data from triplicate wells are calculated. Some parameters for cellular responses can be calculated: GI=growth inhibition, TGI=total growth inhibition (cytostatic effect) and LC=cell killing (cytotoxic effect).
Kindly state GI50 for each of the entries shown.
Give your result in nM as a bare value.

// query Data request, read-out GI50, for C=CCN1[C@@H]2c3c(cc(C)c(OC)c3O)C[C@H]1[C@H](C#N)N1C2[C@@H]2SC[C@]3(NCCc4cc(OC(=O)OC(C)(C)C)c(OC)cc43)C(=O)OC[C@H]1c1c3c(c(C)c(OC(=O)CCCCCCC)c12)OCO3 (stereo partly shown) [compound 48]
// result 4010

// query Consider next the compound C=CCN1[C@@H]2c3c(cc(C)c(OC)c3O)C[C@H]1[C@H](C#N)N1C2[C@@H]2SC[C@]3(NCCc4cc(OC(=O)OC(C)(C)C)c(OC)cc43)C(=O)OC[C@H]1c1c3c(c(C)c(OC(=O)/C=C/c4ccccc4)c12)OCO3 (stereo partly shown) [compound 47] in the same way.
// result 9160

// query Cool, now C=CCN1[C@@H]2c3c(cc(C)c(OC)c3O)C[C@H]1[C@H](C#N)N1C2[C@@H]2SC[C@]3(NCCc4c3[nH]c3ccccc43)C(=O)OC[C@H]1c1c3c(c(C)c(OC(C)=O)c12)OCO3 (stereo partly shown) [compound 55]
// result 151

// query Input COc1c(C)cc2c(c1O)[C@H]1N[C@@H](C2)[C@H](C#N)N2C1[C@@H]1SC[C@]3(NCCc4c3[nH]c3ccccc43)C(=O)OC[C@H]2c2c3c(c(C)c(OC(C)=O)c21)OCO3 (stereo partly shown) [compound 59]
// result 5.8
